Sourced from PubChem BioAssay (NCI)

Provide the recorded TGI for the entries that follow.
- Tested on: MCF7 breast
- Procedure Summary: NCI tumour cell line growth inhibition, 48 h

Answered examples (5):
O=C(CC(C(=O)c1ccsc1)c1ccsc1)c1ccsc1 (centres undefined) : > 100 µM
CCOC(=O)CCC(NC(=O)c1ccc(Oc2nc3c(N)cc(C(F)(F)F)cc3nc2-c2ccccc2)cc1)C(=O)OCC (centres undefined) : > 100 µM
CCS(=O)c1c2cc(OC)ccc2nc2ccc(OC)cc12 (centres undefined) : > 100 µM
Cc1ccc(S(=O)(=O)N/N=C2\CCC3(O)CC2(C)CCC2C3CC2(C)C)cc1 (centres undefined) : > 100 µM
c1ccc(Oc2ccc(Nc3ncc(-c4ccccc4)o3)cc2)cc1 : > 25 µM

Hi there! I need TGI for each item below, if you can.
1. CC(C)OC(=O)[C@H]1ON2O[C@H](O[C@@H]3CCCC[C@H]3c3ccccc3)C([Si](C)(C)c3ccccc3)[C@H]3OC(=O)[C@@H]1C32 (some centres undefined)
2. C[P+](c1ccccc1)(c1ccc(Cl)cc1)c1ccc(Cl)cc1
3. CC[C@H](C)[C@H](NC(=O)[C@H]1CCCCN1C)C(=O)N(C)[C@H](C[C@@H](OC(C)=O)c1cccc(C(=O)N[C@@H](Cc2ccccc2)C[C@H](C)C(=O)O)n1)C(C)C
4. c1ccc(Cn2c(-c3ccc(-c4ccccc4)cc3)cc3ccccc32)cc1

## Output
> 100 µM
> 100 µM
> 25 µM
> 100 µM
